Item-by-item account of LD50
Assay overview: Toxicity in po dosed Rattus norvegicus (rat)
Assay type: organism-based
Measurement setup: in vivo
Numbers only here, please. The scale is mg/kg.

Example cases with answers are listed next.
1) CC(C)(C)C(O)(CCc1ccc(Cl)cc1)Cn1cncn1 (centres undefined)	1700
2) OC(Cc1ccccc1Cl)(Cn1nc[nH]c1=S)C1(Cl)CC1 (centres undefined)	6200
3) Fc1ccc([C@]2(Cn3cncn3)O[C@H]2c2ccccc2Cl)cc1	3160

Now examine the next entry.
// LD50 lookup, compound = CC1(C)CCC(Cc2ccc(Cl)cc2)C1(O)Cn1cncn1 (centres undefined) , result: 660

###

Assay overview: Selectivity ratio of relative toxicity against po dosed rat to relative efficacy against Gibberella zeae
Type: organism-based
Measurement setup: in vivo
Measure name: selectivity ratio
Give a plain numeric answer without units written out.

Example cases with answers are listed next.
1. CC(C)(C)C(O)(CCc1ccc(Cl)cc1)Cn1cncn1 (stereo not drawn) [TEBUCONAZOLE]	0.44
2. CC1(C)CCC(Cc2ccc(Cl)cc2)C1(O)Cn1cncn1 (stereo not drawn) [METCONAZOLE]	0.27

Now examine the next entry.
// selectivity ratio lookup, compound = OC(Cc1ccccc1Cl)(Cn1nc[nH]c1=S)C1(Cl)CC1 (stereo not drawn) [PROTHIOCONAZOLE] , result: 10.3
